# assay.target: UniProt P03372
# Sequence (P03372 whole entry): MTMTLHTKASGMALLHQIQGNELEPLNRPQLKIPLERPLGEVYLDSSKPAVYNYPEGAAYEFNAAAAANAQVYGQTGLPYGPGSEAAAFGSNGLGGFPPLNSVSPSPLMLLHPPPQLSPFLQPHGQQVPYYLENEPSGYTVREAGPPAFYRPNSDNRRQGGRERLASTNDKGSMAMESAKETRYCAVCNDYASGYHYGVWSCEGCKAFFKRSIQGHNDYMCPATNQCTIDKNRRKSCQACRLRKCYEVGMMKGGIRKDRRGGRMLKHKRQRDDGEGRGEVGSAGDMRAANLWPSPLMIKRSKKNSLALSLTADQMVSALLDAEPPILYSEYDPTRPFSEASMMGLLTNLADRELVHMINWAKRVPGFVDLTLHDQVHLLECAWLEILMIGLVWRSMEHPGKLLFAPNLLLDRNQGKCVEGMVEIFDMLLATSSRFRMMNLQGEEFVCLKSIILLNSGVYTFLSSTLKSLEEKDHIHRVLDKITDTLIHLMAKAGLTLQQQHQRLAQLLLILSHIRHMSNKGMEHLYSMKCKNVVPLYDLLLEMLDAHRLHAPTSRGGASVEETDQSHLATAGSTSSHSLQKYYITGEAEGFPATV
# experimental.protocol: Induction of Estrogen receptor degradation in wildtype human MCF7 cells assessed as reduction in estrogen receptor level incubated for 24 hrs by Western blot analysis
# Format: cell-based
experimental.endpoint: DC50 (nM)

{"compound": "C[C@@H]1Cc2c([nH]c3ccccc23)[C@@H](c2c(F)cc(NC3CN(CCOCCCC(F)(F)C(F)(F)F)C3)cc2F)N1CC(F)(F)CO", "experimental.endpoint": "DC50", "readout.value": 3.8}
{"compound": "C[C@@H]1Cc2c([nH]c3ccccc23)[C@@H](c2c(F)cc(NC3CN(CCCS(=O)(=O)CCCC(F)(F)C(F)(F)F)C3)cc2F)N1CC(F)(F)F", "experimental.endpoint": "DC50", "readout.value": 10.6}
{"compound": "C[C@@H]1Cc2c([nH]c3ccccc23)[C@@H](c2c(F)cc(NC3CN(CCC[S+]([O-])CCCC(F)(F)C(F)(F)F)C3)cc2F)N1CC(F)(F)CO (some centres undefined)", "experimental.endpoint": "DC50", "readout.value": 1.2}
{"compound": "C[C@@H]1Cc2c([nH]c3ccccc23)[C@@H](c2c(F)cc(NC3CN(CCC[S+]([O-])CCCC(F)(F)C(F)(F)F)C3)cc2F)N1CC(F)(F)F (some centres undefined)", "experimental.endpoint": "DC50", "readout.value": 1.7}

====

# experimental.protocol: Cmax in Sprague-Dawley rat at 30 mg/kg, IM measured after 49 days by LC-MS/MS analysis
# Assay type: ADME, organism-based
# assay.conditions: in vivo, time 49 day
experimental.endpoint: Cmax (ng/mL)

{"sample.smiles": "C[C@@H]1Cc2c([nH]c3ccccc23)[C@@H](c2c(F)cc(NC3CN(CCCS(=O)(=O)CCCC(F)(F)C(F)(F)F)C3)cc2F)N1CC(F)(F)CO", "experimental.endpoint": "Cmax", "readout.value": 41.5}

====

# experimental.protocol: MRT in Sprague-Dawley rat at 30 mg/kg, IM measured after 49 days by LC-MS/MS analysis
# Format: ADME, organism-based
# assay.conditions: in vivo, time 49 day

{"sample.smiles": "C[C@@H]1Cc2c([nH]c3ccccc23)[C@@H](c2c(F)cc(NC3CN(CCCS(=O)(=O)CCCC(F)(F)C(F)(F)F)C3)cc2F)N1CC(F)(F)CO", "value.unit": "days", "MRT": 15.6}

====

Below: a set of entries, each annotated with reported remaining at 1 h.
# experimental.protocol: Metabolic stability in human liver microsomes assessed as parent compound remaining incubated for 60 mins in presence of NADPH by LC-MS/MS analysis
# Type: ADME, Microsome
# assay.conditions: read-out: Stability
experimental.endpoint: remaining at 1 h

{"molecule": "C[C@@H]1Cc2c([nH]c3ccccc23)[C@@H](c2c(F)cc(NC3CN(CCCS(=O)(=O)CCCC(F)(F)C(F)(F)F)C3)cc2F)N1CC(F)(F)F", "experimental.endpoint": "remaining at 1 h", "readout.value": "71.2%"}
{"molecule": "C[C@]12CC[C@@H]3c4ccc(O)cc4C[C@@H](CCCCCCCCC[S+]([O-])CCCC(F)(F)C(F)(F)F)[C@H]3[C@@H]1CC[C@@H]2O (stereo partly drawn) [FULVESTRANT]", "experimental.endpoint": "remaining at 1 h", "readout.value": "13%"}
{"molecule": "C[C@@H]1Cc2c([nH]c3ccccc23)[C@@H](c2c(F)cc(NC3CN(CCCS(=O)(=O)CCCC(F)(F)C(F)(F)F)C3)cc2F)N1CC(F)(F)CO", "experimental.endpoint": "remaining at 1 h", "readout.value": "61%"}
